Origin of measurements: ChEMBL document CHEMBL1143122

Tested on: LOX IMVI
Assay: Antiproliferative activity against human LOXIMVI cells after 48 hrs
Type: functional
Consider the following compounds and their measured GI50 readings.
Field format: number, assumed nM, no unit text.

Some compounds with recorded GI50:
> print(dat)
                              smiles.string  measurement.type  reported.measurement
1  CCCCCCCCCCCCCCN[C@@H](C)[C@H](O)c1ccccc1              GI50                  1780
2  C[C@@H](NC(=O)CCCCCCCCCCCCCCC[n+]1ccccc1)[C@@H](O)c1ccccc1.[Br-]              GI50                  3550
3        CCCCCCCCCCCCCCN[C@@H](CO)Cc1ccccc1              GI50                  1580

Q: Report GI50 for CCCCCCCCCCCCCCN[C@H](CO)[C@H](O)c1ccc([N+](=O)[O-])cc1.Cl please.
A: 1740

Q: What does the record list as GI50 for C[C@H](NC(=O)CCCCCCCCCCCCCCC[n+]1ccccc1)[C@H](O)c1ccccc1.[Br-] ?
A: 4070

Q: Would you kindly share the measured GI50 for CCCCCCCCCCCCCCN[C@H](C)[C@@H](O)c1ccccc1.Cl ?
A: 1820

Q: Could you share which GI50 value was measured for CCCCCCCCCCCCCCN[C@H](CO)[C@H](O)c1ccccc1 ?
A: 1780

* * *

Test system: PC-3
Assay: Antiproliferative activity against human PC3 cells after 48 hrs
Format: functional
Settings: PC-3, 48 h, read-out: Log TGI (converted)
Field 'label' (enum: y / n). Set to y when TGI is strictly under 3 µM; else n.

Answered cases to consult:
> print(dat)
                              smiles.string  answer.label
1  CCCCCCCCCCCCCCN[C@H](C)[C@@H](O)c1ccccc1.Cl             n
2  C[C@@H](NC(=O)CCCCCCCCCCCCCCC[n+]1ccccc1)[C@@H](O)c1ccccc1.[Br-]             n
3        CCCCCCCCCCCCCCN[C@@H](CO)Cc1ccccc1             y

Q: Does the reported TGI of the following molecule sit strictly below 3 µM? CCCCCCCCCCCCCCN[C@H](CO)[C@H](O)c1ccc([N+](=O)[O-])cc1.Cl
A: n

Q: In plain terms, does CCCCCCCCCCCCCCN[C@@H](C)[C@H](O)c1ccccc1 come in under 3 µM for TGI?
A: n

* * *

System: HCT-15
Assay: Antiproliferative activity against human HCT15 cells after 48 hrs
Assay type: functional
Details: Homo sapiens, HCT-15, 48 h
MEASUREMENT_TYPE: LC50 (µM)
Reply numerically in µM, unit not repeated.

Solved cases below.
> print(dat)
                              smiles.string  measurement.type  reported.measurement
1  CCCCCCCCCCCCCCN[C@H](C)[C@@H](O)c1ccccc1.Cl              LC50                  5.89
2  C[C@@H](NC(=O)CCCCCCCCCCCCCCC[n+]1ccccc1)[C@@H](O)c1ccccc1.[Br-]              LC50                  58.9
3  CCCCCCCCCCCCCCN[C@H](CO)[C@H](O)c1ccccc1              LC50                  6.03
4  CCCCCCCCCCCCCCN[C@@H](C)[C@H](O)c1ccccc1              LC50                  5.89

Moving on to the next compound.
Q: Param item = CCCCCCCCCCCCCCN[C@@H](CO)Cc1ccccc1 ; retrieve measured LC50.
A: 5.89
